target: SMAD3 MH1 (Homo sapiens, UniProt P84022 1-132); assay: EMSA; Hill 2.5; EMSA: 25 mM Tris-HCl (pH not given for binding buffer; RNA stock pH 7.5), 115 mM KCl, 1 mM MgCl2, 1 mM DTT, 20 ng/ul poly I:C, 0.1 mg/ml BSA, 10% glycerol, on ice 2 h; 0.5x TBE gel at 4 C; conditions: protein: recombinant; tags: 6xHis-SUMO cleaved; label: 5' 32P; hairpin with 2x3 internal loop
Sequence (P84022 1-132): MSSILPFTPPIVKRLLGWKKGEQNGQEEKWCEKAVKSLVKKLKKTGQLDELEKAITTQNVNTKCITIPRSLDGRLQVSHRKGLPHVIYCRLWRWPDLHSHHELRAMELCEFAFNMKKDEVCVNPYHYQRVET
parameterMeasured: pKd
Interpret pKd as the negative base-10 log of the concentration measured in mol/L.

Tell us which pKd value is on record for GGUCUGGGCGCAGCGCAAGCUGACGGUACAGGCC (structured_RNA) [21 RRE]
5.52
